Answer each item with its documented inhibition.
- System: Enterovirus strain 6
- method: microbe, parasite or virus in culture
- Format: cell-based
- Parameters: dose or concentration left out as unconfirmed
- experimental.context: read-out: antiviral effect, EV6
Supply the numeric figure in %, leaving out any unit text.

Exercise: Record request: inhibition value, item COc1ccc(-c2c(C)nn3c(NCc4ccc(O)cc4)cc(C)nc23)cc1OC
Solution: 62

Exercise: For the molecule shown here, COc1ccc(-c2cnn3c(NCc4ccncc4)cc(C)nc23)cc1OC , give the reported inhibition.
Solution: 88

Exercise: Which inhibition is reported for this molecule? COc1ccc(-c2c(C)nn3c(NCc4ccncc4)cc(C)nc23)cc1OC
Solution: 90

Exercise: Which inhibition value belongs to COc1ccc(-c2cnn3c(NCc4cccc(S(C)(=O)=O)c4)cc(C)nc23)cc1OC ?
Solution: 44

Exercise: Any idea what inhibition was measured for COc1ccc(-c2c(C)nn3c(NCc4cccc(S(C)(=O)=O)c4)cc(C)nc23)cc1OC ?
Solution: 89

Exercise: Bench note: what inhibition did COc1ccc(CNc2cc(C)nc3c(-c4ccc(OC)c(OC)c4)c(C)nn23)cn1 show?
Solution: 0

###

Please provide measured inhibition for the entries that follow.
- Test system: coxsackie B virus strain 5
- method: CPE inhibition in mammalian cell culture, Cox-B5
- Assay type: cell-based
- Set-up: dose or concentration left out as unconfirmed
- experimental.context: read-out: antiviral effect, B5
Numeric only. Scale: %

Exercise: Recall the recorded inhibition for COc1ccc(-c2c(C)nn3c(NCc4cccc(S(C)(=O)=O)c4)cc(C)nc23)cc1OC with coxsackie B virus strain 5 and state it.
Solution: 89

Exercise: # returns recorded inhibition (system: coxsackie B virus strain 5) for COc1ccc(-c2c(C)nn3c(NCc4ccc(O)cc4)cc(C)nc23)cc1OC
Solution: 81

Exercise: Write down the reported inhibition of COc1ccc(-c2cnn3c(NCc4ccncc4)cc(C)nc23)cc1OC , test system: coxsackie B virus strain 5.
Solution: 90

Exercise: Record lookup: for coxsackie B virus strain 5, what inhibition belongs to COc1ccc(CNc2cc(C)nc3c(-c4ccc(OC)c(OC)c4)c(C)nn23)cn1 ?
Solution: 98

Exercise: Form field - read-out: inhibition; system: coxsackie B virus strain 5; submitted item: COc1ccc(-c2c(C)nn3c(NCc4ccc(C)nc4)cc(C)nc23)cc1OC
Solution: 95

Exercise: Kindly state the measured inhibition obtained for COc1ccc(-c2cnn3c(NCc4cccc(S(C)(=O)=O)c4)cc(C)nc23)cc1OC with coxsackie B virus strain 5.
Solution: 29

Exercise: Test system coxsackie B virus strain 5; read-out inhibition; what value for COc1ccc(-c2c(C)nn3c(NCc4ccncc4)cc(C)nc23)cc1OC ?
Solution: 98

Exercise: Please provide the recorded inhibition for COc1ccc(-c2c(C)nn3c(NCc4ccc(C(C)=O)cc4)cc(C)nc23)cc1OC , tested on coxsackie B virus strain 5.
Solution: 56

###

Field: inhibition. Provide a value for each of the compounds that follow.
- Test system: coxsackie B virus strain 1
- method: CPE inhibition in mammalian cell culture, Cox-B1
- Type: cell-based
- Parameters: dose or concentration left out as unconfirmed
- experimental.context: read-out: antiviral effect, B1
Only the number, expressed in %, is required.

Exercise: Please report the recorded inhibition for COc1ccc(-c2c(C)nn3c(NCc4cccc(S(C)(=O)=O)c4)cc(C)nc23)cc1OC .
Solution: 95

Exercise: Return reported inhibition; argument: COc1ccc(-c2c(C)nn3c(NCc4ccc(C(C)=O)cc4)cc(C)nc23)cc1OC
Solution: 100

Exercise: Endpoint output: inhibition of COc1ccc(-c2c(C)nn3c(NCc4ccc(C)nc4)cc(C)nc23)cc1OC . Value?
Solution: 100

Exercise: Please give the measured inhibition for this compound: COc1ccc(-c2c(C)nn3c(NCc4ccncc4)cc(C)nc23)cc1OC
Solution: 100

Exercise: Fill blank: measured inhibition of the compound COc1ccc(CNc2cc(C)nc3c(-c4ccc(OC)c(OC)c4)c(C)nn23)cn1 is ____.
Solution: 88

Exercise: Data request, read-out inhibition, for COc1ccc(-c2c(C)nn3c(NCc4ccc(O)cc4)cc(C)nc23)cc1OC
Solution: 85
